Each recorded value in this set is attributed to paper PMC9398005.

Kd by entry:
- study target: T1, mouse Rbpj K195E (53-474) (mouse, UniProt P31266 53-474, K195E)
- T1 construct: also called analogous to human RBPJ K169E; source: E. coli BL21 Tuner, pGEX-6P1, purified (glutathione resin, PreScission cleavage, SP ion exchange)
- T1 sequence (P31266 53-474 K195E): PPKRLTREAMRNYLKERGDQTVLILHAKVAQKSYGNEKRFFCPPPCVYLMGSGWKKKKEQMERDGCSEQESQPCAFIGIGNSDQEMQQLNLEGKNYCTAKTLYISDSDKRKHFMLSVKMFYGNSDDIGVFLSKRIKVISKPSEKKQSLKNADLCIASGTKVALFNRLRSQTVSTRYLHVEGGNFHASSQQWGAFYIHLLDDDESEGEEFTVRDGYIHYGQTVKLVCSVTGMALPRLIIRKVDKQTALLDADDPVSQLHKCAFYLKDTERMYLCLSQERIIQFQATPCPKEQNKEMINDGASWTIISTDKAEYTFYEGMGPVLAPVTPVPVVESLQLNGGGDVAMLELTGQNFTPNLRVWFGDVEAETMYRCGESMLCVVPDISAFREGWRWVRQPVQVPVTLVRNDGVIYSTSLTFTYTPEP
- test name: ITC; RAM peptide, Hairless or SHARP in the syringe, Su(H) or Rbpj in the cell; 50 mM sodium phosphate, 150 mM sodium chloride; 20 injections of 14 uL; triplicate; one site binding model; 20°C by the methods, 25°C by the legend of Fig 6
- settings: both partners purified
Numeric answer only, unit nM assumed.

- binder: "VLLSRKRRRQHGQLWFPEGFKVSEASKK (Notch1, RAM domain; also called mNotch1 RAM; mouse Notch 1 RAM; source: synthetic peptide (Peptide2.0, 95% purity)) [Notch1 RAM peptide (residues 1754-1781)]"
  value measured: 22.4

Could you now consider this next binder?
Give its Kd value. Item: SHARP residues 2776-2833 (domain or fragment, human, UniProt Q96T58 2776-2833, looked up, the methods say human SHARP, the results and legend say mouse SHARP; species told as human in the methods and as mouse in the results and legend; also called mouse SHARP; source: bacterial recombinant, pSMT3, purified as previously described) RASANENSRFHPGSMPVIDDRPADAGSGAGLRVNTSEGVVLLSYSGQKTEGPQRISAK
21.1
